System: Plasmodium falciparum
Test: Antiplasmodial activity against sorbitol-synchronized ring stage chloroquine sensitive Plasmodium falciparum 3D7 infected in erythrocytes measured after 48 hrs by SYBR green dye based fluorescence analysis
Type: functional, organism-based
Measurement parameters: 3D7, Erythrocyte
Lab note: cut-off is 700 nM. Strictly less in IC50 is Y. Exactly 700 nM or more is N.

Completed entries (count: 3):
Cc1cc(NCCCCCCCNc2ccnc3cc(Cl)ccc23)n2nc(C)cc2n1: Y
Cc1cc(NCCCNc2ccnc3cc(Cl)ccc23)n2nc(C(F)(F)F)nc2n1: Y
O=C1C(O)=C([C@H]2CC[C@H](c3ccc(Cl)cc3)CC2)C(=O)c2ccccc21 [ATOVAQUONE]: Y

In: Lab log: compare recorded IC50 with 700 nM; is it strictly lower for Cc1cc(NCCCCCCCNc2ccnc3cc(Cl)ccc23)n2ncnc2n1 ?
Out: Y

In: For Cc1cc(N2CCN(c3ccnc4cc(Cl)ccc34)CC2)n2nc(C)cc2n1 then?
Out: N

In: For Cc1cc(NCCCCCCCNc2ccnc3cc(Cl)ccc23)n2nc(C(F)(F)F)nc2n1 then?
Out: Y

In: For Cc1cc(NCCCNc2ccnc3cc(Cl)ccc23)n2nc(C)nc2n1 then?
Out: N

In: For Cc1cc(N2CCN(c3ccnc4cc(Cl)ccc34)CC2)n2nc(C(F)(F)F)nc2n1 then?
Out: N

###

Test: Selectivity index, ratio of CC50 for human HepG2 cells to IC50 for antiplasmodial activity against sorbitol-synchronized ring stage chloroquine sensitive Plasmodium falciparum 3D7 infected in erythrocytes
Assay type: toxicity, cell-based
Measurement parameters: Plasmodium falciparum 3D7 in erythrocytes, read-out: Ratio CC50/IC50
Readout name: selectivity ratio
One number for each entry.

Sample records with selectivity ratio:
Cc1cc(NCCCCCCCNc2ccnc3cc(Cl)ccc23)n2nc(C(F)(F)F)nc2n1: 33
Cc1cc(NCCCCCCCNc2ccnc3cc(Cl)ccc23)n2ncnc2n1: 146
Cc1cc(NCCCCCCCNc2ccnc3cc(Cl)ccc23)n2nc(C)cc2n1: 211
Cc1cc(NCCCCCCCNc2ccnc3cc(Cl)ccc23)n2nc(C)nc2n1: 142
Cc1cc(NCCCNc2ccnc3cc(Cl)ccc23)n2nc(C)nc2n1: 131

In: Given the compound Cc1cc(NCCCNc2ccnc3cc(Cl)ccc23)n2nc(C(F)(F)F)nc2n1 , what is its reported selectivity ratio?
Out: 168

###

Test: Cytotoxicity against human HepG2 cells assessed as reduction in cell viability incubated for 72 hrs by MTT assay
Assay type: toxicity, cell-based
Kindly supply the reported CC50 at 72 h values for the records listed here.

Sample records with CC50 at 72 h:
Cc1cc(NCCCCCCCNc2ccnc3cc(Cl)ccc23)n2ncnc2n1: 16 µM
Cc1cc(NCCCCNc2ccnc3cc(Cl)ccc23)n2nc(C(F)(F)F)nc2n1: > 25 µM
Cc1cc(NCCCCNc2ccnc3cc(Cl)ccc23)n2nc(C)cc2n1: > 100 µM
Cc1cc(NCCCNc2ccnc3cc(Cl)ccc23)n2nc(C(F)(F)F)nc2n1: 113 µM
Cc1cc(NCCCCNc2ccnc3cc(Cl)ccc23)n2nc(C)nc2n1: > 25 µM
CCN(CC)CCCC(C)Nc1ccnc2cc(Cl)ccc12 (stereo not given): 398 µM
Cc1cc(NCCCNc2ccnc3cc(Cl)ccc23)n2nc(C)nc2n1: 110 µM
Cc1cc(NCCCCCCCNc2ccnc3cc(Cl)ccc23)n2nc(C)nc2n1: 17 µM

Consider the following items and state reported CC50 at 72 h for each.
1. Cc1cc(NCCCCCCCNc2ccnc3cc(Cl)ccc23)n2nc(C(F)(F)F)nc2n1
2. Cc1cc(NCCCCCCCNc2ccnc3cc(Cl)ccc23)n2nc(C)cc2n1

Out:
13 µM
9.7 µM

###

Target of assay: Dihydroorotate dehydrogenase (quinone), mitochondrial (Plasmodium falciparum (isolate 3D7), UniProt Q08210)
Sequence (Q08210 whole entry): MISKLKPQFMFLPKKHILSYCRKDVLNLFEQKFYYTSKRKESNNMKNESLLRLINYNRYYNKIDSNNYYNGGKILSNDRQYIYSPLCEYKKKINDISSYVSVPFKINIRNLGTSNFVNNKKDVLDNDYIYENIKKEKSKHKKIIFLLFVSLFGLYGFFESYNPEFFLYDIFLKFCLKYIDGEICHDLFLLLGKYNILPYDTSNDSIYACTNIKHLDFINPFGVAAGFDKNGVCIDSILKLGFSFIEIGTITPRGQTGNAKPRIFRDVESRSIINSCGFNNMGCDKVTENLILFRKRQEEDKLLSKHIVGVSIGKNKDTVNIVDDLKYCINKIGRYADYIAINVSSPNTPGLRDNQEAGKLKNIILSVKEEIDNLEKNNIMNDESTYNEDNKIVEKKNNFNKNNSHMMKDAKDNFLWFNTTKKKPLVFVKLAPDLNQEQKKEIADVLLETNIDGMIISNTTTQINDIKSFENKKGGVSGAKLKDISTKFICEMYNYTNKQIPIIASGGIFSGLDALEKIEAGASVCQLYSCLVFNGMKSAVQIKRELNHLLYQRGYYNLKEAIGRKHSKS
Test: Inhibition of Plasmodium falciparum DHODH
Readout name: IC50
Reply with the number and its unit after it.

In: Given the compound Cc1cc(Nc2ccc3ccccc3c2)n2nc(C(F)(F)F)nc2n1 , what is its reported IC50?
Out: 700 nM

###

Test system: Plasmodium falciparum
Test: Antiplasmodial activity against sorbitol-synchronized ring stage atovaquone resistant Plasmodium falciparum TM90C6B harboring Y268S mutation in CYTB gene, Y184F mutation in MDR1 gene, N51I/C59R/S108N mutation in DHFR gene and S436F/A437G/A581G mutation in DHPS gene infected in erythrocytes measured after 48 hrs by SYBR green dye based fluorescence analysis
Type: functional, organism-based
Measurement parameters: Erythrocyte
Kindly supply the reported IC50 values for the records listed here.

O=C1C(O)=C([C@H]2CC[C@H](c3ccc(Cl)cc3)CC2)C(=O)c2ccccc21 [ATOVAQUONE]: > 1 µM
Cc1cc(NCCCCCCCNc2ccnc3cc(Cl)ccc23)n2nc(C)cc2n1: 0.04 µM
Cc1cc(NCCCCCCCNc2ccnc3cc(Cl)ccc23)n2ncnc2n1: 0.2 µM

In: Given the compound Cc1cc(NCCCCCCCNc2ccnc3cc(Cl)ccc23)n2nc(C)nc2n1 , what is its reported IC50?
Out: 0.18 µM

###

System: Plasmodium berghei
Test: Antiplasmodial activity against GFP-expressing Plasmodium berghei HSP70 infected in CD-1 mouse assessed as inhibition of ookinete formation at 10 uM measured after 22 hrs by giemsa staining based microscopic analysis
Type: functional
Measurement parameters: read-out: INH
Readout name: Percent inhibition of ookinete formation at 10 µM
Reply with the number and its unit after it.

O=C1C(O)=C([C@H]2CC[C@H](c3ccc(Cl)cc3)CC2)C(=O)c2ccccc21: 78%

Consider the following items and state reported Percent inhibition of ookinete formation at 10 µM for each.
1. Cc1cc(NCCCCCCCNc2ccnc3cc(Cl)ccc23)n2nc(C)nc2n1
2. Cc1cc(NCCCCNc2ccnc3cc(Cl)ccc23)n2nc(C)nc2n1
3. Cc1cc(NCCCCCCCNc2ccnc3cc(Cl)ccc23)n2nc(C)cc2n1
4. Cc1cc(NCCCCNc2ccnc3cc(Cl)ccc23)n2nc(C)cc2n1
5. Cc1cc(NCCCCCCCNc2ccnc3cc(Cl)ccc23)n2ncnc2n1
6. Cc1cc(NCCCCCCCNc2ccnc3cc(Cl)ccc23)n2nc(C(F)(F)F)nc2n1
7. Cc1cc(NCCCNc2ccnc3cc(Cl)ccc23)n2nc(C)nc2n1
8. Cc1cc(NCCCCNc2ccnc3cc(Cl)ccc23)n2nc(C(F)(F)F)nc2n1

Out:
0%
0%
43%
22%
30%
20%
23%
42%

###

Kindly supply the reported Ratio IC50 values for the records listed here.
System: Plasmodium falciparum
Test: Resistance index, ratio of IC50 for antiplasmodial activity against sorbitol-synchronized ring stage 2-(1,1-difluoroethyl)-5-methyl-N-(4-(pentafluoro-l6-sulfaneyl)phenyl)-[1,2,4]triazolo[1,5-a]pyrimidin-7-amine resistant Plasmodium falciparum Dd2 infected in erythrocytes to IC50 for antiplasmodial activity against sorbitol-synchronized ring stage chloroquine sensitive Plasmodium falciparum 3D7 infected in erythrocytes
Assay type: functional
Give bare numbers.

Cc1cc(Nc2ccc(S(F)(F)(F)(F)F)cc2)n2nc(C(C)(F)F)nc2n1 [DSM-265]: 3
Cc1cc(NCCCCCCCNc2ccnc3cc(Cl)ccc23)n2nc(C)nc2n1: 1.3
Cc1cc(NCCCCCCCNc2ccnc3cc(Cl)ccc23)n2nc(C)cc2n1: 1

Let us move to another entry and its Ratio IC50.
In: Given the compound Cc1cc(NCCCCCCCNc2ccnc3cc(Cl)ccc23)n2ncnc2n1 , what is its reported Ratio IC50?
Out: 2.1

###

Test system: Plasmodium falciparum
Test: Antiplasmodial activity against sorbitol-synchronized ring stage chloroquine, mefloquine and pyrimethamine resistant Plasmodium falciparum Dd2 harboring N86F/M74I/ N75E/[…] mutation in MDR1 gene, N51I/C59R/S108N mutation in DHFR gene and S436F/A437G/A613S mutation in DHPS gene infected in erythrocytes measured after 48 hrs by SYBR green dye based fluorescence analysis
Type: functional, organism-based
Measurement parameters: Dd2, Erythrocyte
Kindly supply the reported IC50 values for the records listed here.
Reply with the number and its unit after it.

Sample records with IC50:
Cc1cc(NCCCCCCCNc2ccnc3cc(Cl)ccc23)n2nc(C)cc2n1: 38 nM
Cc1cc(NCCCCCCCNc2ccnc3cc(Cl)ccc23)n2nc(C)nc2n1: 170 nM
Cc1cc(NCCCCCCCNc2ccnc3cc(Cl)ccc23)n2nc(C(F)(F)F)nc2n1: 330 nM

Let us move to another entry and its IC50.
In: Which IC50 is reported with Plasmodium falciparum for this entry: Cc1cc(NCCCCCCCNc2ccnc3cc(Cl)ccc23)n2ncnc2n1 ?
Out: 320 nM

###

Kindly supply the reported pIC50 values for the records listed here.
System: Plasmodium falciparum
Test: Antiplasmodial activity against sorbitol-synchronized ring stage 2-(1,1-difluoroethyl)-5-methyl-N-(4-(pentafluoro-l6-sulfaneyl)phenyl)-[1,2,4]triazolo[1,5-a]pyrimidin-7-amine resistant Plasmodium falciparum Dd2 infected in erythrocytes measured after 48 hrs by SYBR green dye based fluorescence analysis
Type: functional, organism-based
Measurement parameters: Dd2, Erythrocyte
Answers are plain numbers, as −log10 of the molar value.

Sample records with pIC50:
Cc1cc(Nc2ccc(S(F)(F)(F)(F)F)cc2)n2nc(C(C)(F)F)nc2n1: 7.92
Cc1cc(NCCCCCCCNc2ccnc3cc(Cl)ccc23)n2ncnc2n1: 6.64
Cc1cc(NCCCCCCCNc2ccnc3cc(Cl)ccc23)n2nc(C)cc2n1: 7.30

Let us move to another entry and its pIC50.
In: Given the molecule Cc1cc(NCCCCCCCNc2ccnc3cc(Cl)ccc23)n2nc(C)nc2n1 , what is its reported pIC50?
Out: 6.82
